tested on: MDA-MB-468 breast; assay: NCI-60 one-dose screen, 48 h (100 = growth as untreated, 0 = no growth, -100 = all killed); conditions: 10 µM unless noted
This is part of a sample that, as a whole, favours compounds with a hit. Of some 83,000 tested, about 20% had one in any assay.
VALUE KIND: growth (%)
One number for each entry, in %.

Worked examples, 3 compounds total:
- COMPOUND: "CCCCCO/N=C\\c1c2c(O)c3c(O)c(C)c4c(c3c1O)C(=O)C(C)(O/C=C\\C(OC)C(C)C(OC(C)=O)C(C)C(O)C(C)C(O)C(C)/C=C\\C=C(\\C)C(=O)N2)O4 (stereo not drawn)"
  VALUE KIND: "growth"
  SCALE UNIT: "%"
  VALUE OBSERVED: 0.538
- COMPOUND: "[2H]C1([2H])NC([2H])([2H])C([2H])([2H])N(c2ccc(Nc3ncc4cc(C(=O)N(C)C)n(C5CCCC5)c4n3)nc2)C1([2H])[2H]"
  VALUE KIND: "growth"
  SCALE UNIT: "%"
  VALUE OBSERVED: 99.5
- COMPOUND: "COc1ccc(-c2nc(/C=N/Nc3cc(C)nc4ccc(Br)cc34)c(C)o2)cc1"
  VALUE KIND: "growth"
  SCALE UNIT: "%"
  VALUE OBSERVED: -78.9

For each entry beneath this line, provide reported growth.
1. NC1=NN(O)C2=CC([N+](=O)[O-])C=CC2=N1 (stereo not drawn)
2. N#CC1=C(N)Oc2c(c(N)nn2-c2ccccc2)C1c1ccc(Cl)cc1Cl (stereo not drawn)
3. O=C1c2cccnc2C(=O)c2c1c(C(=O)OCCN1CCCCC1)c1ccccn21
4. O=S(=O)(NCCCNc1nccc(-c2cn(-c3ccccc3)nc2-c2ccc(Cl)c(O)c2)n1)c1ccccc1
5. COc1ccc(-c2nsc3c2NC(=O)CC3c2ccc(Cl)cc2)cc1 (stereo not drawn)

Return:
[107, 129, -16.6, 59.7, 58.7]

* * *

test system: MDA-MB-468 breast; experiment: NCI-60 one-dose screen, 48 h (100 = growth as untreated, 0 = no growth, -100 = all killed); details: 10 µM unless noted
The panel holds about 83,000 compounds, 20% with a hit somewhere; the sample as a whole holds those more often. The source made the active and inactive calls. How the source made its calls: active means growth percent below 10; inactive means the rest.
Hi there, I'd appreciate the recorded growth for every entry that follows.

- MOLECULE: "C#CCOCC1CN(C)C(=O)O1 (configuration not stated)"
  growth: "118% (inactive)"
- MOLECULE: "Cc1ccc2sc3c(NCCCNCCO)nc4ccccc4c3c(=O)c2c1"
  growth: "42.5% (inactive)"
- MOLECULE: "C=C(C)[C@@H]1CC[C@]2(C)[C@H](CC=C3[C@@H]4[C@H](C)[C@@H](C)CC[C@]4(CO)CC[C@]32C)[C@@]1(C)CCCN"
  growth: "-54.7% (active)"
- MOLECULE: "COc1ccc2c(c1)CC/C(=C\\c1cncc(Br)c1)C2=O"
  growth: "99.4% (inactive)"
- MOLECULE: "c1cc2[nH]ncc2cc1-c1nc2ccc3[nH]ncc3c2c2c1CCC2"
  growth: "3.92% (active)"

For each entry beneath this line, provide reported growth.
1. CCCN(CCC)CCCNC(=O)c1cc2c(-c3ccc(OC)c(OC)c3)nn(C)c2s1
2. C=C(C)C(=O)Nc1ccc(NC(C)C)cc1
3. CN(C)c1ccc(/C=C/c2ccnc3ccccc23)cc1N
4. NNC(=O)Nc1ccccc1
5. O=C(/C=C/c1ccc(F)cc1)c1ccc(O)cc1
6. Cc1ccc(S(=O)(=O)c2nc(-c3ccccc3)oc2S(C)=O)cc1 (configuration not stated)

Return:
1. 39% (inactive)
2. 111% (inactive)
3. 5.88% (active)
4. 104% (inactive)
5. 83% (inactive)
6. -59% (active)

For S=c1[nH]nc2ccccn12 on MDA-MB-468 breast, measured growth was 98.2% (inactive)

* * *

test system: M14 melanoma; test: NCI-60 one-dose screen, 48 h (100 = growth as untreated, 0 = no growth, -100 = all killed); conditions: 10 µM
The panel holds about 83,000 compounds, 20% with a hit somewhere; the sample as a whole holds those more often.
Checkbox rule: growth lower than 50% = satisfied; growth not lower than 50% = not satisfied.

Examples with answers:
- STRUCTURE SMILES STRING: "O=C(CSc1nc2ccccc2c(=O)n1-c1ccc(Cl)cc1)Nc1ccc(-c2nc3ccc([N+](=O)[O-])cc3[nH]2)cc1"
  TARGET UNDER TEST: "M14 melanoma"
  LABEL CLASS: "satisfied"
- STRUCTURE SMILES STRING: "Cc1ccc2c(c1)C(=O)/C(=C/c1c[nH]c3ccccc13)S2"
  TARGET UNDER TEST: "M14 melanoma"
  LABEL CLASS: "not satisfied"
- STRUCTURE SMILES STRING: "CCn1c(SCC(=O)Nc2ccc(-c3nc4ccccc4[nH]3)cc2)nc2ccccc2c1=O"
  TARGET UNDER TEST: "M14 melanoma"
  LABEL CLASS: "satisfied"

Continue with the compound presented below.
Enquiry: Consider the compound COc1cc(-c2nc3ccc(C)cc3[nH]2)ccc1OCc1nnc(-c2ccccc2Br)o1 . Is its growth strictly less than 50%?
Return: not satisfied

* * *

test system: MDA-MB-468 breast; assay: NCI-60 one-dose screen, 48 h (100 = growth as untreated, 0 = no growth, -100 = all killed); conditions: 10 µM unless noted
The panel holds about 83,000 compounds, 20% with a hit somewhere; the sample as a whole holds those more often.
Hi there, I'd appreciate the recorded growth for every entry that follows.
Numbers only, in %.

Worked examples, 4 molecules total:
- STRUCTURE SMILES STRING: "CC(=O)Nc1ccc(CC[C@H]2CCC/C=C/[C@@H]3C[C@H](O)C[C@H]3[C@H](O)/C=C/C(=O)O2)cc1"
  SCALE UNIT: "%"
  growth: -23.5
- STRUCTURE SMILES STRING: "CN(C)CCCNc1nc(-c2cccc(C(Cl)(Cl)Cl)c2)nc(C(Cl)(Cl)Cl)n1"
  SCALE UNIT: "%"
  growth: 114
- STRUCTURE SMILES STRING: "CCOc1cc(/C=N\\NC(=O)C[N+](C)(C)C)ccc1O"
  SCALE UNIT: "%"
  growth: 123
- STRUCTURE SMILES STRING: "COc1ccc(/C=C/C(=O)c2c(O)c(C)c(O)c3c2OC2=CC(O)=C(C(C)=O)C(=O)[C@]23C)cc1"
  SCALE UNIT: "%"
  growth: -40.1

Next molecule, please.
Value of measured growth for the entry O=C1/C(=C/c2ccc([N+](=O)[O-])cc2)Oc2ccc(O)cc21 : -63.3

* * *

tested on: MDA-MB-468 breast; assay: NCI-60 one-dose screen, 48 h (100 = growth as untreated, 0 = no growth, -100 = all killed); settings: 10 µM unless noted
Compounds without any hit were thinned out: in the full panel of roughly 83,000, 20% have a hit. Active and inactive are the calls of the source. How the source made its calls: active means growth percent below 10; inactive means the rest.
VALUE KIND: growth

Worked examples, 8 molecules total:
- MOLECULE: "COc1ccccc1/C=C/C=N/NC1=NC2C(S1)N(C)C(=O)N2C (stereo unspecified)"
  growth: "-5.34% (active)"
- MOLECULE: "C[C@@H]1C[C@H](N)C[C@H](c2ccncc2NC(=O)c2ccc(F)c(-c3c(F)cccc3F)n2)C1"
  growth: "22.3% (inactive)"
- MOLECULE: "N#Cc1ccccc1Cn1c2nc(=N)c3ccccc3c-2nc2ccccc21"
  growth: "24.3% (inactive)"
- MOLECULE: "COc1cc(-c2csc(NC(=O)Nc3cc(Cl)cc(Cl)c3)n2)cc(OC)c1OC"
  growth: "-6.75% (active)"
- MOLECULE: "C#C[C@]1(O)CC[C@H]2[C@@H]3CC=C4c5sc(Nc6cc(Cl)ccn6)nc5CC[C@]4(C)[C@H]3CC[C@@]21C"
  growth: "28.6% (inactive)"
- MOLECULE: "CCNC(=O)Oc1ccc(/C(=C(\\C)c2ccccc2)c2ccc(OCCN(CC)CC)cc2)cc1"
  growth: "79.3% (inactive)"
- MOLECULE: "COc1cc(-c2nc(SCCC(C)C)nc(Nc3ccc(S(N)(=O)=O)cc3)c2C#N)cc(OC)c1OC"
  growth: "42.8% (inactive)"
- MOLECULE: "Cn1cc(-c2csc(-c3c[nH]c4ccc(Br)cc34)n2)c2cnccc21"
  growth: "-70.5% (active)"

For each entry beneath this line, provide reported growth.
1. COc1ccc2c(c1)[nH]c(=O)c1c3cc(OC)ccc3cn21
2. C#CCN(C)CCCOc1ccc(NC(=O)CCCCCCCCC(=O)NO)cc1Cl

Return:
1: 5.66% (active); 2: 27.6% (inactive)
